Value source: ChEMBL document CHEMBL3407438

In this section we review reported Tmax values for a set of compounds.
Test: Tmax in NMRI mouse at 0.2 mg/kg, iv
Format: ADME, organism-based
Design: dose 0.2 mg/kg, route intravenous
Settings: in vivo
Give the value in min but do not write min after it.

INSERT INTO assay_data (substance_smiles, property_name, uom, measured_number) VALUES
  ('O=C1NCCC12CCN(c1c(Cl)cncc1-c1ccc(N3CCOCC3)cc1)CC2', 'Tmax', 'min', 6);

Please turn your attention to the following entry.
GET /values?readout=Tmax&item= Cn1cc(-c2ccc(-c3cncc(Cl)c3N3CCC4(CCNC4=O)CC3)cc2)cn1
6

* * *

Test: Drug metabolism in mouse liver microsome at 10 uM after 30 mins by LC-MS analysis
Type: ADME
Details: liver microsomes, read-out: Drug metabolism
Please assign rule not met whenever metabolised at 0.5 h, 10 µM is at or above 40%, and rule met whenever it is below.

Worked set:
INSERT INTO assay_data (substance_smiles, assigned_label) VALUES
  ('NC(=O)C1CCN(c2ccncc2-c2ccccc2)CC1', 'rule met'),
  ('CC1(C(N)=O)CCN(c2c(Cl)cncc2-c2ccc(N3CCOCC3)cc2)CC1', 'rule met'),
  ('NC(=O)C1CCN(c2c(Cl)cncc2-c2cccc(N3CCOCC3)c2)CC1', 'rule met');

is_below(metabolised at 0.5 h, 10 µM, 40%) for NC(=O)C1CCN(c2c(Cl)cncc2-c2ccc(N3CCOCC3)cc2)CC1 ?
rule met

Another: COc1ccc(-c2cncc(Cl)c2N2CCC(C(N)=O)CC2)cc1
rule not met

Another: CC(C)c1cncc(-c2ccc(N3CCOCC3)cc2)c1N1CCC2(CCNC2=O)CC1
rule met

Another: NC(=O)C1CCN(c2c(Cl)cncc2-c2ccc(F)cc2)CC1
rule not met
